Catalogue of compounds with associated Ki
- EXPERIMENTAL SYSTEM: cloned human dopamine D3 receptors (Homo sapiens)
- Construct: expressed in transfected cells; membrane homogenate
- Sequence (P35462 whole entry): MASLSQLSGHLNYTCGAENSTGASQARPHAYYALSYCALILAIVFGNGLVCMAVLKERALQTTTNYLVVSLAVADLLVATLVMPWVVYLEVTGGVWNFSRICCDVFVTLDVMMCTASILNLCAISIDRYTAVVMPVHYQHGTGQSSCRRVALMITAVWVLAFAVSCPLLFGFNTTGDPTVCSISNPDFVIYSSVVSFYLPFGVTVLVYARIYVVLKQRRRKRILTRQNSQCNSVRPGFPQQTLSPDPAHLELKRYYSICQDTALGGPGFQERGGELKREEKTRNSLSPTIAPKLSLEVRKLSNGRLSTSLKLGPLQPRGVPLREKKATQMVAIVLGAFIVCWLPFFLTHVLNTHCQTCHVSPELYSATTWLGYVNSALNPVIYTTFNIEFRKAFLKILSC
- RUN DESCRIPTION: [N-Methyl-3H]Spiroperidol binding to cloned human dopamine D3 receptors (Protocol 1)
- CONDITION CONTEXT: the 15th table; read-out: D3 Ki

COMPOUND | EXPERIMENTAL SYSTEM | MEASUREMENT UNIT | Ki
COc1ccccc1C(=O)NCCCCN1C2CCC1CC(c1noc3ccccc13)C2 (centres unmarked) [compound 816525] | cloned human dopamine D3 receptors (Homo sapiens) | nM | 148
CCCCCCc1ccc(C(=O)NCCCCN2C3CCC2CC(c2noc4cc(F)ccc24)C3)cc1 (centres unmarked) [compound 816345] | cloned human dopamine D3 receptors (Homo sapiens) | nM | 95.6
O=C(NCCCCN1C2CCC1CC(c1noc3ccccc13)C2)c1cccc2ccccc12 (centres unmarked) [compound 816538] | cloned human dopamine D3 receptors (Homo sapiens) | nM | 178
COc1ccc(C(=O)NCCCCN2C3CCC2CC(c2noc4ccccc24)C3)cc1 (centres unmarked) [compound 816534] | cloned human dopamine D3 receptors (Homo sapiens) | nM | 149
O=C(Cc1ccccc1)NCCCCN1C2CCC1CC(c1noc3cc(F)ccc13)C2 (centres unmarked) [compound 816327] | cloned human dopamine D3 receptors (Homo sapiens) | nM | 392
COc1ccc(C(=O)NCCCCN2C3CCC2CC(c2noc4cc(F)ccc24)C3)cc1OC (centres unmarked) [compound 816332] | cloned human dopamine D3 receptors (Homo sapiens) | nM | 588
CSc1ncccc1C(=O)NCCCCN1C2CCC1CC(c1noc3ccccc13)C2 (centres unmarked) [compound 816541] | cloned human dopamine D3 receptors (Homo sapiens) | nM | 511
O=C(NCCCCN1C2CCC1CC(c1noc3ccccc13)C2)c1ccc(Br)cc1 (centres unmarked) [compound 816536] | cloned human dopamine D3 receptors (Homo sapiens) | nM | 140

* * *

Recorded Ki, one value per entry.
- EXPERIMENTAL SYSTEM: cloned human dopamine D3 receptors (Homo sapiens)
- Construct: expressed in transfected cells; membrane homogenate
- RUN DESCRIPTION: [N-Methyl-3H]Spiroperidol binding to cloned human dopamine D3 receptors (Protocol 1)
- CONDITION CONTEXT: the 13th table, unit inferred; read-out: D3Ki
PROPERTY LABEL: Ki (nM)

COMPOUND | EXPERIMENTAL SYSTEM | PROPERTY LABEL | READOUT VALUE
O=C(NCCCCCN1CCCN(c2csc3cc(F)ccc23)CC1)c1cccc(Cl)c1 [S984486] | cloned human dopamine D3 receptors (Homo sapiens) | Ki | 31.5
Cc1oc(-c2ccc(Cl)cc2)cc1C(=O)NCCCCN1CCCN(c2csc3cc(F)ccc23)CC1 [S981840] | cloned human dopamine D3 receptors (Homo sapiens) | Ki | 3.4
O=C(NCCCCCN1CCCN(c2csc3cc(F)ccc23)CC1)c1cc2sccc2s1 [S984502] | cloned human dopamine D3 receptors (Homo sapiens) | Ki | 6.41
O=C(NCCCCCN1CCCN(c2csc3cc(F)ccc23)CC1)c1c[nH]c2ccccc12 [S984507] | cloned human dopamine D3 receptors (Homo sapiens) | Ki | 62
O=C(NCCCCN1CCCN(c2csc3cc(F)ccc23)CC1)c1ccc2cc[nH]c2c1 [S977825] | cloned human dopamine D3 receptors (Homo sapiens) | Ki | 0.882
O=C(NCCCCN1CCCN(c2csc3cc(F)ccc23)CC1)c1cccc(F)c1 [compound 822154] | cloned human dopamine D3 receptors (Homo sapiens) | Ki | 5.3
COc1ccc2[nH]c(C(=O)NCCCCCN3CCCN(c4csc5cc(F)ccc45)CC3)cc2c1 [S984505] | cloned human dopamine D3 receptors (Homo sapiens) | Ki | 13
O=C(NCCCCN1CCCN(c2csc3cc(F)ccc23)CC1)c1ccc2ccccc2c1 [compound 822156] | cloned human dopamine D3 receptors (Homo sapiens) | Ki | 0.67
O=C(NCCCCN1CCCN(c2csc3cc(C(F)(F)F)ccc23)CC1)c1cccnc1Cl [S980646] | cloned human dopamine D3 receptors (Homo sapiens) | Ki | 110
O=C(NCCCCN1CCCN(c2csc3cc(F)ccc23)CC1)c1cc(Cl)ccc1[N+](=O)[O-] [S982540] | cloned human dopamine D3 receptors (Homo sapiens) | Ki | 1.2
O=C(Cc1cc2ccccc2s1)NCCCCCN1CCC(c2noc3ccsc23)CC1 [compound 816206] | cloned human dopamine D3 receptors (Homo sapiens) | Ki | 505
CCCCCCc1ccc(C(=O)NCCCCCN2CCC(c3noc4ccsc34)CC2)cc1 [compound 816219] | cloned human dopamine D3 receptors (Homo sapiens) | Ki | 132
COc1ccc2cc(C(=O)NCCCCN3CCCN(c4csc5cc(C(F)(F)F)ccc45)CC3)[nH]c2c1 [S980647] | cloned human dopamine D3 receptors (Homo sapiens) | Ki | 17
O=C(NCCCCN1CCCN(c2csc3cc(F)ccc23)CC1)c1cc2ccccc2[nH]1 [S977818] | cloned human dopamine D3 receptors (Homo sapiens) | Ki | 1.85
O=C(NCCCCCN1CCCN(c2csc3cc(F)ccc23)CC1)c1sccc1-n1cccc1 [S984499] | cloned human dopamine D3 receptors (Homo sapiens) | Ki | 28.5
O=C(NCCCCCN1CCC(c2noc3ccsc23)CC1)c1ccc(-c2ccccc2)cc1 [compound 816208] | cloned human dopamine D3 receptors (Homo sapiens) | Ki | 84.9
O=C(NCCCCN1CCCN(c2csc3cc(F)ccc23)CC1)c1ccsc1 [S977829] | cloned human dopamine D3 receptors (Homo sapiens) | Ki | 4.18
